Please go through the items and note down their fold change (FC).
Molecular target: Leucine-rich repeat serine/threonine-protein kinase 2 (Homo sapiens, UniProt Q5S007)
Sequence (Q5S007 whole entry): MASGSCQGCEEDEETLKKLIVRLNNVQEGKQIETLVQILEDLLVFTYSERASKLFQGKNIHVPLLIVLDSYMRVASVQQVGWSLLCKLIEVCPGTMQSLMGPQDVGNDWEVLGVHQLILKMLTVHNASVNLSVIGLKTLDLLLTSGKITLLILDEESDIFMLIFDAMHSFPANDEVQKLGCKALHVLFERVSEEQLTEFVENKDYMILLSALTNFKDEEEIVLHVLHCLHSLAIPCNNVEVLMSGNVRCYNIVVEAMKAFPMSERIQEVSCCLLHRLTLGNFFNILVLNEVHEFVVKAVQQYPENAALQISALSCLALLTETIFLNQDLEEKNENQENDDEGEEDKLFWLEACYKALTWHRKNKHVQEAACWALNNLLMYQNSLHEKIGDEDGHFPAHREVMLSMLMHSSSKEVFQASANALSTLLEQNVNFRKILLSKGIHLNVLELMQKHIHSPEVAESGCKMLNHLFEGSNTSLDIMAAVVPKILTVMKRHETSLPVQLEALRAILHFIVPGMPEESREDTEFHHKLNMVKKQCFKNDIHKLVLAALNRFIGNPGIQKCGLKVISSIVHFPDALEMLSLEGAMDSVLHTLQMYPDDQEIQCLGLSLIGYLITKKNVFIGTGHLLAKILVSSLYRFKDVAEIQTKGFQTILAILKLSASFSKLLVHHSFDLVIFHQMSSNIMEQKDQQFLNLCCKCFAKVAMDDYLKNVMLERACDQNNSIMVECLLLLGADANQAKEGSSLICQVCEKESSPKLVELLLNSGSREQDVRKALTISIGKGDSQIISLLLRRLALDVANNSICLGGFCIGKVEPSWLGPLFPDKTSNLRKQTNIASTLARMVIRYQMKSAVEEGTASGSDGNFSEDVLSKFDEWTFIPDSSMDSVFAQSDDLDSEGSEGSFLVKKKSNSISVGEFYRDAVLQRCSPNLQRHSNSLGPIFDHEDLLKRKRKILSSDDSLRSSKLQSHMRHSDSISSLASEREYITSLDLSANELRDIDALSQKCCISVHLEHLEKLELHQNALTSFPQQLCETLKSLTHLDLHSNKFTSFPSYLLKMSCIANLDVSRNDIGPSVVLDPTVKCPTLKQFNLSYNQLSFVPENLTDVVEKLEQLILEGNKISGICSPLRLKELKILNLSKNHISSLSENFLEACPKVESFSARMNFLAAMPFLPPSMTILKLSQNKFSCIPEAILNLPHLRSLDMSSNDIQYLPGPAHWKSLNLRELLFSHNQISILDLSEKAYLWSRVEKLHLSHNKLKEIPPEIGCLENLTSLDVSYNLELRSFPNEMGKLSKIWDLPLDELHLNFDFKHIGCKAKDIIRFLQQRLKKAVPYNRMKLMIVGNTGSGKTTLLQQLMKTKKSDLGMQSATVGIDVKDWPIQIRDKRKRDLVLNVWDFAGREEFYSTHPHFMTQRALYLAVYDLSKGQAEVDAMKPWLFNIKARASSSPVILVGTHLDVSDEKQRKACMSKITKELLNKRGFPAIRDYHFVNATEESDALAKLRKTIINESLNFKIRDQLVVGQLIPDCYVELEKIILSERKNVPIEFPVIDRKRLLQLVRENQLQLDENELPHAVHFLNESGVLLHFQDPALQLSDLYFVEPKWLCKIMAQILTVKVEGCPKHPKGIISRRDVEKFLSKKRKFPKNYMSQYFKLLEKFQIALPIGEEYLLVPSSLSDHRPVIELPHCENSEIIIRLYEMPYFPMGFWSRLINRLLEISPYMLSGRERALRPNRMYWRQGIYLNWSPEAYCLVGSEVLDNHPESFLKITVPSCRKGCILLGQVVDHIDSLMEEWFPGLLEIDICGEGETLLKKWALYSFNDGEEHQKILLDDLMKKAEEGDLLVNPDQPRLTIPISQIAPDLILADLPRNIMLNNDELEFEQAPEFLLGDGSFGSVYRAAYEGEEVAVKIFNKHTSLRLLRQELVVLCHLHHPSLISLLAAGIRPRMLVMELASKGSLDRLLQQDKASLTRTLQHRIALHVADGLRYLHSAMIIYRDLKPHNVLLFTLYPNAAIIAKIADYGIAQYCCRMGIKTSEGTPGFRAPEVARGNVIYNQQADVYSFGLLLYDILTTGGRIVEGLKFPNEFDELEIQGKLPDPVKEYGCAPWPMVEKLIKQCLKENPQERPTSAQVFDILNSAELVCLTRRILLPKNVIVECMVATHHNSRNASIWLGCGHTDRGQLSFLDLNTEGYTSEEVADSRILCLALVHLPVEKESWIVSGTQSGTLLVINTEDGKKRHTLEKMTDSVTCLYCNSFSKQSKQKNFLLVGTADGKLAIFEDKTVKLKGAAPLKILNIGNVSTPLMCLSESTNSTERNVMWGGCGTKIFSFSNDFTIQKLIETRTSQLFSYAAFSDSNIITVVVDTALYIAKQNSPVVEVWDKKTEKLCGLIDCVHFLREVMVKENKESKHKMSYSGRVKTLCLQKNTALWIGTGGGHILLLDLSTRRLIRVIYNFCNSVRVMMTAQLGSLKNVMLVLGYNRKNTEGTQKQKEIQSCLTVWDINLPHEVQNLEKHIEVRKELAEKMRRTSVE
Test: Inhibition of LRRK2 in human iPSC derived neuronal progenitor cells stably expressing TCF/LEF luciferase reporter gene assessed as modulation of Wnt/beta-catenin signaling pathway by measuring TCF/LEF dependent beta-catenin mediated transcriptional activity at 10 uM measured after 24 hrs in presence of Wnt3a by Steady-Glo luciferase assay relative to control

[in] If you can, please state the reported fold change (FC) value of Cc1ccc2nc(NC(=O)c3ccc(N4CCOCC4)cc3)sc2c1 .
[out] 1.79

[in] Also O=C(Nc1nc2ccc(F)cc2s1)c1ccccc1 , if possible.
[out] 2.29

[in] Also O=C(Nc1nc2ccc(F)cc2s1)c1ccc(N2CCOCC2)cc1 , if possible.
[out] 2

[in] Also O=C(Nc1nc2ccc(Br)cc2s1)c1ccc(N2CCOCC2)cc1 , if possible.
[out] 2

[in] Also CC(C)c1ccc2nc(NC(=O)c3ccc(N4CCOCC4)cc3)sc2c1 , if possible.
[out] 1.22

[in] Also O=C(Nc1nc2ccccc2s1)c1ccc(N2CCOCC2)cc1 , if possible.
[out] 2.2

* * *

Molecular target: Leucine-rich repeat serine/threonine-protein kinase 2 (Homo sapiens, UniProt Q5S007, G2019S)
Sequence (Q5S007 whole entry G2019S, the tested form may be a part): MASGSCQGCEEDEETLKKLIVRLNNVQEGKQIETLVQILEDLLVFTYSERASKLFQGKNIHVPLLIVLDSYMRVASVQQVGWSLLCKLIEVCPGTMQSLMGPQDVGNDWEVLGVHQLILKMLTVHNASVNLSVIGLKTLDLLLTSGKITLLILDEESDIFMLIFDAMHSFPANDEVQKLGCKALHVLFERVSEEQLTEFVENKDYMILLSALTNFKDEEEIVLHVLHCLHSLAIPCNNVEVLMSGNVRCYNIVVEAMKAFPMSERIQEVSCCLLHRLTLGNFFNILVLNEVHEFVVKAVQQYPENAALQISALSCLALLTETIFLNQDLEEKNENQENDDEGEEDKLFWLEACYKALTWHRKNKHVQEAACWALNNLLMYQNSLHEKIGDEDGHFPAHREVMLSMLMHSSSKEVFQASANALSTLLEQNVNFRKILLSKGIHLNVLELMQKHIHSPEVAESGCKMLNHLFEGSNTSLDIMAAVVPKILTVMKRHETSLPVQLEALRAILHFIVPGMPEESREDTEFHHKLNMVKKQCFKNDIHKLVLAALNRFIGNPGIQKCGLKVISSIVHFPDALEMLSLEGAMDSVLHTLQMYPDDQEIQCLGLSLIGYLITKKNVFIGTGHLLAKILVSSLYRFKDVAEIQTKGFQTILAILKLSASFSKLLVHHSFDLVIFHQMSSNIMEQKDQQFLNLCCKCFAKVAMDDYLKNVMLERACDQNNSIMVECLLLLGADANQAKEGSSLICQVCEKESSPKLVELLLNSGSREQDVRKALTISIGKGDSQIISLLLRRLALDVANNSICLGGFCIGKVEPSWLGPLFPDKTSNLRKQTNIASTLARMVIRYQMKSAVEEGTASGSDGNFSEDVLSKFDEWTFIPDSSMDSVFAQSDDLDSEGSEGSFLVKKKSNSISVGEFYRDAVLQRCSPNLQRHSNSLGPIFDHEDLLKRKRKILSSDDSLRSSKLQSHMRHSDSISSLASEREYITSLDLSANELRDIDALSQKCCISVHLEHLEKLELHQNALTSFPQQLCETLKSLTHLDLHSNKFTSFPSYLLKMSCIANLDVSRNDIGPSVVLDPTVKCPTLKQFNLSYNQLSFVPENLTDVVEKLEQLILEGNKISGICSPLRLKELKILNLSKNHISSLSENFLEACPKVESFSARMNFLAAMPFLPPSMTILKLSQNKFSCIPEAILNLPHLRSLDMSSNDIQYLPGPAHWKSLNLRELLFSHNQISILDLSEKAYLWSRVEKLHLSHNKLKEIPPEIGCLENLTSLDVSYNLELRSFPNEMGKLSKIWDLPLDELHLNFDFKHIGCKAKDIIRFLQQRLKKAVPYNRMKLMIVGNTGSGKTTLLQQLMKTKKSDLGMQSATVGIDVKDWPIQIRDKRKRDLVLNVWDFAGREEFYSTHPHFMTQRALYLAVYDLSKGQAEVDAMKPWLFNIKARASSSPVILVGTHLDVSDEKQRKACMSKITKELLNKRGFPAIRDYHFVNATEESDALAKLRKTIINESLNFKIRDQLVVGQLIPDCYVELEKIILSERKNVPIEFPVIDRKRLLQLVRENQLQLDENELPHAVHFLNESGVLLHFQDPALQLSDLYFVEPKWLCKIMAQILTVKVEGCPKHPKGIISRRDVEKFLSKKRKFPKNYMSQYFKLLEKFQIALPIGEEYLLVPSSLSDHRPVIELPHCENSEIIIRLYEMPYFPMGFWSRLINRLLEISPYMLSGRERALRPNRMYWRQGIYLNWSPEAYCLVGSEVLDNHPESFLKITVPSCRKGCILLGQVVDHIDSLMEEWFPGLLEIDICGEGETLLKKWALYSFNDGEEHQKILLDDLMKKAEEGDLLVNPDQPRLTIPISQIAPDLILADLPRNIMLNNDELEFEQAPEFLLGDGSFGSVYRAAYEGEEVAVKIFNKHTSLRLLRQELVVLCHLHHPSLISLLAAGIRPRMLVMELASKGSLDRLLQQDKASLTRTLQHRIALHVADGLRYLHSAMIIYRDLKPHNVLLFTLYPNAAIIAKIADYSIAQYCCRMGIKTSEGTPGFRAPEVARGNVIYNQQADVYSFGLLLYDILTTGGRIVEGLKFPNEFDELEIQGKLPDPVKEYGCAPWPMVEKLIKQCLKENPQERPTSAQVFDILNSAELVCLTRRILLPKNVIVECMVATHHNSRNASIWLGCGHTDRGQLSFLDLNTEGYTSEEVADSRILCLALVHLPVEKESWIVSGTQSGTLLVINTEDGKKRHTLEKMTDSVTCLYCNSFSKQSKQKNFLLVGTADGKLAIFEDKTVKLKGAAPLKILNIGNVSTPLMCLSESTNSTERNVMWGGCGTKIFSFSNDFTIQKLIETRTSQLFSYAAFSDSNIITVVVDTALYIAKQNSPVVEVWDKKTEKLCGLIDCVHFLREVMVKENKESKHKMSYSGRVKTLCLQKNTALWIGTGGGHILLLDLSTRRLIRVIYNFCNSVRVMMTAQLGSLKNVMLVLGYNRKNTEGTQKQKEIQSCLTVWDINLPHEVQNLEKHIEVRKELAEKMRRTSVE
Assay: Inhibition of human GST-tagged LRRK2 G2019S mutant (970 to 2527 residues) expressed in baculovirus expression system assessed as reduction in ADP formation using LRRKtide as substrate measured after 1 hr in presence of ATP by Adapta assay
ASSAY_ENDPOINT: pIC50
pIC50 here: minus log base 10 of the concentration, concentration in moles per litre.

[in] If you can, please state the reported pIC50 value of O=C(Nc1nc2ccc(F)cc2s1)c1ccccc1 .
[out] 6.28

[in] Also O=C(Nc1nc2ccc(Br)cc2s1)c1ccc(N2CCOCC2)cc1 , if possible.
[out] 6.59

[in] Also O=C(Nc1nc2ccc(C(F)(F)F)cc2s1)c1ccc(N2CCOCC2)cc1 , if possible.
[out] 6.55

[in] Also O=C(Nc1nc2ccc(F)cc2s1)c1ccc(N2CCOCC2)cc1 , if possible.
[out] 6.74

[in] Also CC(C)c1ccc2nc(NC(=O)c3ccc(N4CCOCC4)cc3)sc2c1 , if possible.
[out] 5.95

[in] Also O=C(Nc1nc2ccccc2s1)c1ccc(N2CCOCC2)cc1 , if possible.
[out] 6.43

[in] Also COc1ccc2nc(NC(=O)c3ccc(N4CCOCC4)cc3)sc2c1 , if possible.
[out] 6.36

[in] Also O=C(Nc1nc2ccc(F)cc2s1)c1ccc(Cl)cc1 , if possible.
[out] 5.25

[in] Also Cc1cc(-c2ccc3nc(Nc4ccccc4)nn3c2)cc(C)c1O , if possible.
[out] 7.70

* * *

Please go through the items and note down their fold change (FC).
Target: Leucine-rich repeat serine/threonine-protein kinase 2 (Homo sapiens)
Experiment: Inhibition of LRRK2 in human iPSC derived neuronal progenitor cells stably expressing TCF/LEF luciferase reporter gene assessed as modulation of Wnt/beta-catenin signaling pathway by measuring TCF/LEF dependent beta-catenin mediated transcriptional activity at 1 uM measured after 24 hrs in presence of Wnt3a by Steady-Glo luciferase assay relative to control
Answer with the value's number alone.

[in] If you can, please state the reported fold change (FC) value of Cc1ccc2nc(NC(=O)c3ccc(N4CCOCC4)cc3)sc2c1 .
[out] 1.76

[in] Also CC(C)c1ccc2nc(NC(=O)c3ccc(N4CCOCC4)cc3)sc2c1 , if possible.
[out] 1.19

[in] Also O=C(Nc1nc2ccc(F)cc2s1)c1ccc(N2CCOCC2)cc1 , if possible.
[out] 1.58

[in] Also O=C(Nc1nc2ccc(Br)cc2s1)c1ccc(N2CCOCC2)cc1 , if possible.
[out] 1.25

[in] Also O=C(Nc1nc2ccc(F)cc2s1)c1ccccc1 , if possible.
[out] 1.43

[in] Also O=C(Nc1nc2ccccc2s1)c1ccc(N2CCOCC2)cc1 , if possible.
[out] 3.25
